Measured IC50 of individual entries
- study.system: T1, FcεRI-IgG (UniProt P12319 26-205)
- T1 construct: extracellular domain; Produced from CHO cells (Genentech); also called FcεRI-Fc; bivalent fusion protein of the extracellular domain of FcεRI and the Fc domain of IgG; not shown: Fc domain of IgG
- T1 sequence (looked up): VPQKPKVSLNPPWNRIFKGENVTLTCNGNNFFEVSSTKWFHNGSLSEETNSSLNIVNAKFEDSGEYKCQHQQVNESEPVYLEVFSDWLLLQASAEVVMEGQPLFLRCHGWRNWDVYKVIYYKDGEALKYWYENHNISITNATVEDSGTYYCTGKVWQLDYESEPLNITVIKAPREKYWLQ
- assay.procedure: competitive phage ELISA: g3 peptide-phage on immobilized FcεRI-IgG, soluble FcεRI-IgG titrated
Where no end group is shown, it is not given here.
Express it in nM; write the number only.

// worked examples, IC50 included
binder	uom	IC50
LPRCTEGPWGWVCMAAD (not fully specified; cysteine pairing not given here, Monovalent g3p phage display; not shown: fused to M13 gene-3 protein (g3p) on phage) [g3c.1 peptide-phage]	nM	3
NLPRCTEGPWGWVCMA (not fully specified (bridges); cysteine pairing not given here, Monovalent g3p phage display; not shown: fused to M13 gene-3 protein (g3p) on phage) [g3c.31 peptide-phage]	nM	6.1
NLPRCTEGPWGWVCM (not fully specified; cysteine pairing not given here, not shown: fused to M13 gene-3 protein (g3p) on phage) [g3c.34 peptide-phage]	nM	14.6

Moving on to the next binder.
Q: Which IC50 reading was recorded for the binder NLPRCTEGPWGWVCMAA (not fully specified (bridges); cysteine pairing not given here, Monovalent g3p phage display; not shown: fused to M13 gene-3 protein (g3p) on phage) [g3c.29 peptide-phage] ?
Result: 5
